# tgt: GST-YTHDF2 (Homo sapiens, UniProt Q9Y5A9)
# Construct: made in house
# Sequence (Q9Y5A9 1-579): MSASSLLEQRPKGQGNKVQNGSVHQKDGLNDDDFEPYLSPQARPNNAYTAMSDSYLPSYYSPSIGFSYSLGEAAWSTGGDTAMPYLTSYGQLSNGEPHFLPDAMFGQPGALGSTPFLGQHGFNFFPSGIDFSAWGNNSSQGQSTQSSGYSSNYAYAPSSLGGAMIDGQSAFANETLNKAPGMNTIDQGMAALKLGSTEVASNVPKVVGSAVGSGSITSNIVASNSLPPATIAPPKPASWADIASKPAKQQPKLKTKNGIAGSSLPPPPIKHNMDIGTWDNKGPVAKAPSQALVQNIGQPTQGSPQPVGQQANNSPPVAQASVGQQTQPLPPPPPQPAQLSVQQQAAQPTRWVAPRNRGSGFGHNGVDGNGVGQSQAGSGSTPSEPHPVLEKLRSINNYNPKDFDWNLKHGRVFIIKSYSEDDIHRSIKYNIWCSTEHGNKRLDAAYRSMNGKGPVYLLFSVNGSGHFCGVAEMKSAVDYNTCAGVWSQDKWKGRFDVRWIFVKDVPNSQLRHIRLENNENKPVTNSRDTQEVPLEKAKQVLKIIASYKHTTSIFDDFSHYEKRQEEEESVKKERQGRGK
# assay-explanation: HTRF-based binding assay, competition with m6A-oligoRNA, DF2
Give measured pIC50 for each item. Keep answers brief.
When answering, recall that pIC50 equals minus log10 of the concentration in mol/L, and write that number alone.

Give GST-YTHDF2 (Homo sapiens, UniProt Q9Y5A9) pIC50 for Cc1cccc(NC=C2C(=O)NC(=S)NC2=O)n1 [Compound 9]
4.52

And Cc1ccccc1NN=C1C(=O)NC(=S)NC1=O [Compound 2] ?
3.77

And CC=CC=C1C(=O)NC(=S)NC1=O [Compound 1] ?
4.72

Source listed as paper PMC12371494.
